Target: COX-1 (Homo sapiens, UniProt P23219)
Construct: Fresh heparinised human whole blood; endogenous in cells
Sequence (P23219 24-599): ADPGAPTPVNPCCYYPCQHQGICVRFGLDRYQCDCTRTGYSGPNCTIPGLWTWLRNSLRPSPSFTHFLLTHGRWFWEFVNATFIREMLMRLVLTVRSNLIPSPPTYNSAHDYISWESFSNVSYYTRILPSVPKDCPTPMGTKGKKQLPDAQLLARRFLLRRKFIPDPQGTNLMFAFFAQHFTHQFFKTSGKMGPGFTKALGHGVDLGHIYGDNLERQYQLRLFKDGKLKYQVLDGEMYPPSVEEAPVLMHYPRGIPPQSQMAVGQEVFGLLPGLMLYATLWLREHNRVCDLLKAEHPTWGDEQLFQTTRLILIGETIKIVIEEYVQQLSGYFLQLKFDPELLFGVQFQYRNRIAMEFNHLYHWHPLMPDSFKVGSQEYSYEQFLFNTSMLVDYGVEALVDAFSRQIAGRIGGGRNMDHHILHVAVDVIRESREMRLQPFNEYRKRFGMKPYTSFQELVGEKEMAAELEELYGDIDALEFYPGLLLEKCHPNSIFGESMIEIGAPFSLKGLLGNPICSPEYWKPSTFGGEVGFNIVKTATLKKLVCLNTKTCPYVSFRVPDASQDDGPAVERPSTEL
Assay: Human whole blood assay, COX-1 inhibition
pIC50: −log10 of the molar value.
Assay Readout: pIC50

# annotated cases, reported pIC50 shown
> print(dat)
                                   compound  assay.readout  data.value
1  CCC1OC(=O)C(c2ccc(F)cc2)=C1c1ccc(S(C)(=O)=O)c(F)c1 (stereo not shown)          pIC50        3.53
2  CSc1ccc(C2=C(c3ccc(S(C)(=O)=O)c(F)c3)COC2=O)cc1C          pIC50        3.61

1. COc1ccc(C2=C(c3ccc(S(C)(=O)=O)cc3F)COC2=O)cc1C
2. CS(=O)(=O)c1ccc(C2=C(c3cccc(F)c3)C(=O)OC2)c(F)c1
3. CS(=O)(=O)c1ccc(C2=C(c3cc(F)cc(F)c3)C(=O)OC2)c(F)c1
4. CS(=O)(=O)c1ccc(C2=C(c3ccc(F)cc3)C(=O)OC2)c(F)c1
(Q) Please order the records by their reported pIC50, lowest number first. Put the labels in the requested order and write them down.
(A) 2, 1, 4, 3
(2: 2.91, 1: 3.45, 4: 3.71, 3: 3.94)
